Data credit: PubChem BioAssay AID1508600

# measurement-protocol: Components of the Cytosolic LPS Sensing Pathway: Gene Identification via Genome-wide siRNA Screen;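 note: robust z of the log signal after scaling to non-targeting control siRNA wells of the plate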
# experimental-setup: RAW264.7 macrophages, IL-1a HTRF, actives lie on both sides, screened at 100 nM (by protocol), cells primed 5 h with Pam3CSK4 first
The campaign covered roughly 53,000 sequences. About 3,700 (7%) were called active.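 Rule for the calls: active = gene knockdowns whose robust z-score for IL-1 alpha signal is at least 2 or at most -2, so actives lie on both sides; inactive = the rest.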 The entries come from a sample that favours actives as a whole.
Returns: one label drawn from 1 (active), -1 (inactive)

For orientation, consider the following solved cases.
sequence-content: GGGCAUGUGGAUGACUGAUTT against Gnptg
answer-label: 1
--
sequence-content: GGACUUUGUGGACAAAAUUTT against Ift20
answer-label: -1
--
sequence-content: GCGCACAACAGACUUCUAUTT against Epm2a
answer-label: -1
--
sequence-content: UCUCCUUCAUUCCAUGUAUTT against Olfr441
answer-label: 1
--
sequence-content: CCAAGAAAUUGCACUGGGATT against A130050O07Rik
answer-label: -1

Please find the next sequence below.
Exercise: I'd appreciate the recorded outcome for GCAGAAUUGAAGCUGGAAUTT against Stag1 from this test.
Solution: 1
